- System: Mycobacterium tuberculosis
- Procedure Text: Cornell M. t heat shock assay; also: in the data most compounds retested in dose-response had high values
- Format: functional, organism-based
- Design: dose or concentration left out as unconfirmed
Hit rate of the full screen: of about 69,000 compounds, about 950 (1.4%) showed an effect of 50% or more. The entries come from a sample that favours strong results as a whole.

Compound: CC(NCCn1cccn1)c1ccccc1F (configuration not stated)
Percent Effect [%]: -16.32
--
Compound: O=C(Nc1ccccc1)c1ccc2c(c1)C1(CCCCC1)CN2.O=C(O)C(F)(F)F
Percent Effect [%]: 67.01
--
Compound: CSc1ccc(CNC(c2ccccc2F)c2nccn2C)cc1.Cl (configuration not stated)
Percent Effect [%]: 112.7
--
Compound: Cc1cnn(CC(C)NCc2csc(-c3ncccn3)n2)c1 (configuration not stated)
Percent Effect [%]: 10.59
--
Compound: CC(C)(C)c1nc(CN2CCc3onc(-c4cccc(F)c4)c3C2)no1
Percent Effect [%]: 31.99
--
Compound: Cc1cnn(CC(C)NCc2csc(-c3cccs3)n2)c1 (configuration not stated)
Percent Effect [%]: 37.01
--
Compound: CC/N=c1\nc(NCC)nc2n1C(O)(Nc1cccc(C)c1C)CS2 (configuration not stated)
Percent Effect [%]: 59.58
--
Compound: COc1c(CNC(c2ccccc2F)c2nccn2C)c(C)nn1C (configuration not stated)
Percent Effect [%]: -25.27
--
Compound: CC(Cn1cccn1)NCc1nc(-c2ccccc2Cl)no1 (configuration not stated)
Percent Effect [%]: 1.662
--
Compound: Cc1noc(C)c1C(=O)N1C[C@H]2CC[C@@H]1CN(c1cnccn1)C2
Percent Effect [%]: -7.98
--
Compound: N#Cc1ccc(N2CCCC3(CCC(=O)N3CC3CC3)CC2)nc1.O=C(O)C(F)(F)F (configuration not stated)
Percent Effect [%]: 42.6
--
Compound: Cc1c[nH]c(C2CCCN(Cc3ccccc3C(=O)O)C2)n1.O=CO (configuration not stated)
Percent Effect [%]: -20.14
--
Compound: COc1ccc(C[C@H]2CN(C(=O)c3ccc(C)nc3)CC[C@@H]2OC)cc1.O=C(O)C(F)(F)F
Percent Effect [%]: -2.913
--
Compound: CC(Cn1cccn1)NCc1csc(-c2ccsc2)n1 (configuration not stated)
Percent Effect [%]: 22.32
--
Compound: CC(C)(C)c1ncc(CNc2ccccc2Cn2cncn2)s1
Percent Effect [%]: -19.95
--
Compound: COCC(=O)N1CCC2(CC1)CNc1ccc(F)cc12.O=C(O)C(F)(F)F
Percent Effect [%]: -6.982
--
Compound: CC(C)NC(=O)Nc1ccc2c(c1)ncn2CC(=O)NCCN(C)C
Percent Effect [%]: -0.1313
--
Compound: CC/N=c1\nc(NCC)nc2n1C(O)(Nc1cccc(Cl)c1Cl)CS2 (configuration not stated)
Percent Effect [%]: 0.756
--
Compound: Cc1ccsc1CN1C[C@@H]2COC[C@]2(COCC(=O)N(C)C)C1.O=C(O)C(F)(F)F
Percent Effect [%]: -23.94
--
Compound: Cc1cccc(CN2CC3(CCN(C4CCOC4)CC3)OCC2=O)n1.O=C(O)C(F)(F)F.O=C(O)C(F)(F)F (configuration not stated)
Percent Effect [%]: -30.47
--
Compound: O=C(O)C(F)(F)F.c1cnc(NC2COC3(CCN(Cc4cc[nH]n4)CC3)C2)nc1 (configuration not stated)
Percent Effect [%]: -22.6
--
Compound: CC(C)Cc1nc(CN2CCc3onc(-c4cccc(F)c4)c3C2)no1
Percent Effect [%]: 52.2

###

- System: Mycobacterium tuberculosis
- Procedure Text: Cornell M. t heat shock assay; also: in the data most compounds retested in dose-response had high values
- Format: functional, organism-based
- Set-up: dose or concentration left out as unconfirmed
Hit rate of the full screen: of about 69,000 compounds, about 950 (1.4%) showed an effect of 50% or more. This excerpt belongs to a sample that is enriched for strong results.
Observed Property: Percent Effect (%)

Compound: Cn1cnc(S(=O)(=O)N2CC3(CCN(Cc4ccncc4)C3)C2)c1.O=C(O)C(F)(F)F.O=C(O)C(F)(F)F.O=C(O)C(F)(F)F
Result Number: 36.02

Compound: CCc1nc(CN2CCCN(Cc3noc(C4CC4)n3)CC2)cs1
Result Number: 67.89

Compound: Cc1nc(CN2CCCN(C(=O)COCC3CC3)CC2)cs1
Result Number: 36.12

Compound: Cl.NC1CCc2nc(-c3ccncc3)nc(Nc3cccc(F)c3)c2C1 (stereo not drawn)
Result Number: 82.22

Compound: O=C(NCc1ccccn1)c1cncc(C2CCCN2)n1 (stereo not drawn)
Result Number: 2.609

Compound: O=C(NCc1ccc(F)cc1)C1CCCN(c2ccc3nncn3n2)C1 (stereo not drawn)
Result Number: -16.16

Compound: CCOCC1c2c(ncn2C)CCN1C(=O)c1ccoc1 (stereo not drawn)
Result Number: 35.15

Compound: Cc1noc(C)c1CN1CCN(C(=O)CCn2cncn2)CC1
Result Number: -3.616

Compound: Cc1noc(C)c1CCC(=O)N1CCN(CCn2cccn2)CC1
Result Number: -5.618

Compound: Cc1nc(N2CCCC2)nc2c1CCN(Cc1ccco1)CC2.O=C(O)C(F)(F)F
Result Number: 66.31

Compound: CCOCCNc1nc(-c2ccncc2)nc2c1CCNCC2
Result Number: -10.32

Compound: c1cc(-c2nc3c(c(NCCn4ccnn4)n2)CCNCC3)ccn1
Result Number: -28.7

Compound: Cc1nc(N2CCOCC2)nc2c1CCN(Cc1cccnc1)CC2.O=C(O)C(F)(F)F
Result Number: 5.04

Compound: CC(C)Oc1ccc(CN2CCC(Cc3nnc(CO)n3C)CC2)cc1
Result Number: -21.53

Compound: COCCn1c(-c2cccc(OC)c2)cnc1NC(=O)NCCC(C)C
Result Number: 67.45

Compound: CCOCC1c2c(ncn2C)CCN1C(=O)c1cnc(C)cn1.O=C(O)C(F)(F)F (stereo not drawn)
Result Number: 18.53

Compound: Cc1nc(N2CCCC2)nc2c1CCN(Cc1ccoc1)CC2.O=C(O)C(F)(F)F
Result Number: 64.12

Compound: CC(C)NC(=O)c1sc2ccccc2c1[C@H]1CC[C@H](CN)CC1.Cl
Result Number: 6.071

Compound: CC(C)NC(=O)N1CC(=O)c2sc(NC3CCCCC3)nc2C1
Result Number: 1.144

Compound: CCCNc1cc(-c2c[nH]nc2C2CCN(C(=O)C3CCC3)C2)ccn1 (stereo not drawn)
Result Number: -8.816

Compound: COC(=O)Cn1c(=O)nc2n1C(=O)N(c1ccc(C)cc1)C2
Result Number: 3.714

Compound: CCOC(=O)[C@]12CCCN(Cc3cccs3)C[C@H]1CN(CC(C)C)C2.O=C(O)C(F)(F)F.O=C(O)C(F)(F)F
Result Number: 26.18

Compound: CC[C@H]1CN2CC[C@H]1C[C@@H]2CNC(=O)Nc1ccccc1
Result Number: -5.923

Compound: CCc1nc(CN2CCCN(C(=O)COCC3CC3)CC2)cs1
Result Number: 155.1

Compound: CNC(=O)[C@H]1C[C@@H]2CN(Cc3ccc(C)cc3)C[C@H]1O2.O=C(O)C(F)(F)F
Result Number: 33.5

Compound: Cc1[nH]/c(=N\C(=O)c2csc(NC3CCCC3)n2)sc1C
Result Number: 101.9

Compound: Cc1nc(N2CCOCC2)nc2c1CCN(Cc1ccsc1)CC2.O=C(O)C(F)(F)F
Result Number: 3.426

Compound: CC(C1CCN(Cc2ccccc2OC(F)F)CC1)N1CCOCC1 (stereo not drawn)
Result Number: 90.2

Compound: COCCn1cc(C(=O)N2CCCC2c2cc(C)on2)c2ccccc21 (stereo not drawn)
Result Number: -20.39

Compound: Cc1csc(NC(=O)c2cnc(C3CCCN3)cn2)n1.Cl (stereo not drawn)
Result Number: 82.89

Compound: CC[C@H]1CN2CC[C@H]1C[C@@H]2CNC(=O)Nc1cc(OC)cc(OC)c1
Result Number: 76.55

Compound: CC[C@H]1CN2CC[C@H]1C[C@@H]2CNCc1ccc(OC(F)(F)F)cc1
Result Number: 100.5

Compound: CN(C)Cc1cc(=O)n2c(n1)CN(S(=O)(=O)C1CC1)CCC2.O=C(O)C(F)(F)F
Result Number: 14.69

Compound: O=C(Nc1cccc(F)c1)NC1CCN(Cc2ccncc2)CC1
Result Number: -8.889

Compound: CC(C)Oc1cccc(CN2CCC(c3n[nH]c4ncccc34)CC2)c1
Result Number: -24.22

Compound: CCCOc1ccccc1CN[C@@H]1CCC[C@H]1Cc1cc(C)no1.O=C(O)CC(O)(CC(=O)O)C(=O)O
Result Number: -26.27

Compound: CC(C)Oc1cccc(CN2CCC(C(C)N3CCOCC3)CC2)c1 (stereo not drawn)
Result Number: 91.46

Compound: CC(C1CCN(Cc2cccc(OC(F)F)c2)CC1)N1CCOCC1 (stereo not drawn)
Result Number: 1.128

Compound: Cc1[nH]/c(=N\C(=O)c2csc(NC3CC3)n2)sc1C
Result Number: 102.4

Compound: CC(C1CCN(Cc2c(Cl)cncc2Cl)CC1)N1CCOCC1 (stereo not drawn)
Result Number: -44.11

Compound: CC[C@H]1CN2CC[C@H]1C[C@@H]2CNC(=O)Nc1ccc(Br)cc1
Result Number: 4.849

Compound: CC[C@H]1CN2CC[C@H]1C[C@@H]2CNCc1ccc(OC)cc1
Result Number: -7.267

Compound: CCc1nc(CN2CCCN(C(=O)c3cnc[nH]3)CC2)cs1
Result Number: 30.64
